- Test system: RARa homodimer (NR concentration 270 nM)
- protocol.summary: PBM binding z-score (relative to random genomic background probes); higher = stronger binding; sequences stand for … in GC…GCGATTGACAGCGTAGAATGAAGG
Classification field: yes = PBM binding z-score at or over 0.9; no = PBM binding z-score under 0.9.

Known results for sequences:
> print(dat)
                     residue.sequence                               test.target  classification
1  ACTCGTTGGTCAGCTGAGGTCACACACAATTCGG  RARa homodimer (NR concentration 270 nM)             yes
2  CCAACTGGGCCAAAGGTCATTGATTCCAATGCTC  RARa homodimer (NR concentration 270 nM)             yes
3  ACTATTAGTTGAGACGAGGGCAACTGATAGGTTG  RARa homodimer (NR concentration 270 nM)              no

Confirm if PBM binding z-score reported for the sequence "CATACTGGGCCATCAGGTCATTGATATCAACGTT" is 0.9 or above.
no

Reported PBM binding z-score reaches at least 0.9 for "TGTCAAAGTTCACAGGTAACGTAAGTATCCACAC" ?
yes

Identify whether the reported PBM binding z-score of the following sequence is 0.9 or greater: "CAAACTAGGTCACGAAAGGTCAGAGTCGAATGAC"
yes

Does PBM binding z-score meet or surpass 0.9 for "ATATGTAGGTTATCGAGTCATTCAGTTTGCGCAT" ?
yes

Decide: is the reported value of PBM binding z-score for "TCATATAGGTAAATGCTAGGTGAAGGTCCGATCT" equal to or greater than 0.9?
yes

Given the entry "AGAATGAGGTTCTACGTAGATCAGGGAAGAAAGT" , answer whether its PBM binding z-score meets or surpasses 0.9.
no

Decide: PBM binding z-score of "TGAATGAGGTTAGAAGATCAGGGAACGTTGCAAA" >= 0.9?
no

Test whether the sequence "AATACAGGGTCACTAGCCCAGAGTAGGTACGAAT" records PBM binding z-score of 0.9 or higher.
yes

----------
- Test system: THRa homodimer (NR concentration 90 nM)
- protocol.summary: PBM binding z-score (relative to random genomic background probes); higher = stronger binding; sequences stand for … in GC…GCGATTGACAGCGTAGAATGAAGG
assay.endpoint: PBM binding z-score

Sample records with PBM binding z-score:
> print(dat)
                     residue.sequence  value.measured
1  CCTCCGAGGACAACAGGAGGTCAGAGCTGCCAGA            2.36
2  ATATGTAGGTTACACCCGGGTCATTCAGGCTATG            2.45
3  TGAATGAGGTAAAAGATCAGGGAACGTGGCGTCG            -0.2

# PBM binding z-score lookup, item "CGAACTAGGGCAGAACAGGACAGTGAAGGATGAT"
-0.495

Look at this sequence and give its reported PBM binding z-score. "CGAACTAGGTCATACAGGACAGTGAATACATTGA"
1.2

PBM binding z-score for "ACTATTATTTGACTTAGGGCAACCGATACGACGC" ?
1.52

Recorded PBM binding z-score for "AGAACGAGGGCAATCAGTTGATAGCACGGGTGGC" , please?
0.0484

Form field: reported PBM binding z-score of "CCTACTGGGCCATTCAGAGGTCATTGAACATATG"
1.65

Quick check: PBM binding z-score of "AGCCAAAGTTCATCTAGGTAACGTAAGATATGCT" ?
0.256

----------
- System: RARa homodimer (NR concentration 270 nM)
- protocol.summary: PBM binding z-score (relative to random genomic background probes); higher = stronger binding; sequences stand for … in GC…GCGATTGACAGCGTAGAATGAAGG
assay.endpoint: PBM binding z-score
Lab note: jot down the number only; don't add units.

For orientation, consider the following solved cases.
> print(dat)
                     residue.sequence  value.measured
1  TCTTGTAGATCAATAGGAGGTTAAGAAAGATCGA           0.522
2  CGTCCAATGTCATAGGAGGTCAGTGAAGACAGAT           0.765
3  CCGACTGGGGAATAAGGTTACCATAAGCCAGCCC           -0.12
4  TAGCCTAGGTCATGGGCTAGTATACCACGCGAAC          -0.439
5  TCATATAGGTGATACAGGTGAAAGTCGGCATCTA            1.22

Could you share what PBM binding z-score was measured for "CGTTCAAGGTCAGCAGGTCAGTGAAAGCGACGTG" , tested on RARa homodimer (NR concentration 270 nM)?
1.55

Find the measured PBM binding z-score: item "AGTCAAACTTCACTAGGTAACGTAAGATTCAGCT" , target or system RARa homodimer (NR concentration 270 nM).
-0.136

Lab request: please report PBM binding z-score under test system RARa homodimer (NR concentration 270 nM) for "CCTACTGCGCCAAAGGTCATTGATTCCAATGCTC"
2.4

----------
- Test system: THRa homodimer (NR concentration 90 nM)
- protocol.summary: PBM binding z-score (relative to random genomic background probes); higher = stronger binding; sequences stand for … in GC…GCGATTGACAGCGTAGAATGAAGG
Known PBM binding z-score of a selection of sequences

> print(dat)
                     residue.sequence  value.measured
1  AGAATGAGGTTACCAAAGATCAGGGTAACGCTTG            1.43
2  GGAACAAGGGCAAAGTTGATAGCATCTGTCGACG          -0.125
3  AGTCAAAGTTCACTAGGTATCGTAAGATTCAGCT          -0.258
4  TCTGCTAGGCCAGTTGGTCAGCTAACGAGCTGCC            -1.4

Which PBM binding z-score is reported for this sequence? "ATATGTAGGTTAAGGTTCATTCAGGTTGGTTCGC"
1.4

Given "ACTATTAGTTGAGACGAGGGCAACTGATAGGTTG" , state its recorded PBM binding z-score.
0.298

Name the reported PBM binding z-score value associated with the sequence "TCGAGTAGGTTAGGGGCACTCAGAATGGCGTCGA"
0.0941

Would you mind telling me what PBM binding z-score value was observed for "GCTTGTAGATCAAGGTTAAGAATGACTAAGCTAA" ?
-0.00442

Entry "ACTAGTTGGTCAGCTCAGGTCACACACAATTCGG" has what PBM binding z-score?
4.32

I would be grateful if you could share the reported PBM binding z-score for "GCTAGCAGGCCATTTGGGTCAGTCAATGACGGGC" .
-0.371

PBM binding z-score for "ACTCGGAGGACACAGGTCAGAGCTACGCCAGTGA" ?
0.77

Which PBM binding z-score value is on record for "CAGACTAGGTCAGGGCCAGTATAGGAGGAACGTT" ?
0.0626

----------
- Tested on: RXRa DBDmut IVT, anti-RXR (DBD mutation: RXRa K156A/R161A, NR concentration 90 nM)
- protocol.summary: PBM binding z-score (relative to random genomic background probes); higher = stronger binding; sequences stand for … in GC…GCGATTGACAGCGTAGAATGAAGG
assay.endpoint: PBM binding z-score

> print(dat)
                     residue.sequence  value.measured
1  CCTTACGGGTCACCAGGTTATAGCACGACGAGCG           0.805
2  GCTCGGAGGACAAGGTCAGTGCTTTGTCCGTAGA           0.477
3  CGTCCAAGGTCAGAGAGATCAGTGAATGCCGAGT            2.73
4  CCAGACTGGTGAAAGGTAACTCAGTCTGGTACGC          -0.492
5  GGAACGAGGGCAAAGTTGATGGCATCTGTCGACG            2.62

Could you now consider this next sequence?
Given the sequence "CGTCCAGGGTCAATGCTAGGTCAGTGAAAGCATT" , what is its reported PBM binding z-score?
2.78

----------
- Test system: VDR homodimer (NR concentration 270 nM)
- protocol.summary: PBM binding z-score (relative to random genomic background probes); higher = stronger binding; sequences stand for … in GC…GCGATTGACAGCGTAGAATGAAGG
Binary classification by PBM binding z-score, with 0.2 as an inclusive lower bound for Met; all other cases are Not met.

Known results for sequences:
> print(dat)
                     residue.sequence  classification
1  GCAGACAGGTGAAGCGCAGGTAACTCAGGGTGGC         Not met
2  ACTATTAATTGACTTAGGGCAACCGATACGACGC             Met
3  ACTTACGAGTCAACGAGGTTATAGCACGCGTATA             Met

Given "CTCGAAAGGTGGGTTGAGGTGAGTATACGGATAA" , state whether its PBM binding z-score is at least 0.2.
Met
